tested on: beta-TC6 cells; assay: Insulin HTRF assay, relative activity Ar normalized to sunitinib; format: cell-based; conditions: Mus musculus, normalized to positive control sunitinib (5 µM = 100%), Table 10

[
  {
    "smiles_data": "c1cnn2c(-c3ccc4c(c3)CCO4)cnc2c1",
    "Emax": "10 to 20%"
  },
  {
    "smiles_data": "O=C(O)CCc1ccc(-c2cnc3cnc(-c4ccccc4Cl)cn23)cc1",
    "Emax": "50 to 100%"
  },
  {
    "smiles_data": "COc1cc(-c2ccc3nnc(-c4ccoc4)n3c2)cc(OC)c1OC",
    "Emax": "50 to 100%"
  },
  {
    "smiles_data": "CS(=O)(=O)c1cccc(-c2ccc3nnc(-c4ccccn4)n3c2)c1",
    "Emax": "20 to 50%"
  },
  {
    "smiles_data": "COc1cc(OC)cc(-c2cn3c(-c4ccsc4)cnc3cn2)c1",
    "Emax": "20 to 50%"
  },
  {
    "smiles_data": "c1cncc(CCNc2ccc3ncc(-c4ccc(N5CCOCC5)cc4)n3n2)c1",
    "Emax": "50 to 100%"
  },
  {
    "smiles_data": "FC(F)(F)Oc1ccc(-c2cn3c(-c4cccs4)cnc3cn2)cc1",
    "Emax": "20 to 50%"
  }
]
